- target_or_test_system: dopamine D2-receptor (Rattus norvegicus, UniProt P61169)
- Construct: The homogenates were centrifuged and synaptic membrane fractions were obtained; from tissue; host or cells: brain striatum, synaptic membrane fraction, male Wistar rat
- Sequence (P61169 whole entry): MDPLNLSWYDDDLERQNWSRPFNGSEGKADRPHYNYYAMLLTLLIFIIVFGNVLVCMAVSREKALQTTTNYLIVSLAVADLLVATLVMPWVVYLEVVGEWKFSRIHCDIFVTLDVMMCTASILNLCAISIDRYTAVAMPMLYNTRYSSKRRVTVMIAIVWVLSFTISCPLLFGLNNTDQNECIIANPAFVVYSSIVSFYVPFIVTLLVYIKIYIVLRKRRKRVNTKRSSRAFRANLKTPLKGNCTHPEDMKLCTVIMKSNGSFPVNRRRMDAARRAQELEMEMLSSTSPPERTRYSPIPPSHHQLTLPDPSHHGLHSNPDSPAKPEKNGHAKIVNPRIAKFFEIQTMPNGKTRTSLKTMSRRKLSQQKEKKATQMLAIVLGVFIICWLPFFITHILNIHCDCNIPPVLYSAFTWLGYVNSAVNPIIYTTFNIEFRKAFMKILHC
- assay: Dopamine D2-receptor radioligand-binding assay (3H-spiperone, brain striatum membranes)
- Set-up: species or system rat (male Wistar)
- run_conditions: 3H-spiperone; rat striatum synaptic membranes; 50 min at 25° C.; non-specific binding with 10^-5 M sulpiride; read-out: pKi value (converted)
- Method: Dopamine D2 -receptor radioligand-binding assay Method: These experiments were done according to the method of Coward, D et al. (Naunyn-Schmiedeberg's Archives of Pharmacology (1987)335, 115-122). […] The radioactivity on the filter was measured using a liquid scintillation counter. The test compounds' dissociation constants (Ki) were determined according to the following equation. […] Kd : ^3 H-spiperone dissociation constant calculated by Scatchard plot. […]
Structures can show the parent of a compound that is named as a salt.
recorded_metric: Ki
Reply with a number, then the unit it belongs to.

For orientation, consider the following solved cases.
molecule: CCCNS(=O)(=O)c1cc(CC(C)NCCOc2cc(F)ccc2OC)ccc1OC (centres unmarked) [Example 20]
test_value: 129 nM
--
molecule: COc1ccc(F)cc1OCCNC(C)Cc1ccc(OC)c(S(N)(=O)=O)c1 (centres unmarked) [Example 1, hydrochloride]
test_value: 120 nM
--
molecule: COc1ccc(F)cc1OCCNC(C)Cc1ccc(OC)c(S(=O)(=O)N(C)C)c1 (centres unmarked) [Example 10]
test_value: 110 nM

dopamine D2-receptor (Rattus norvegicus, UniProt P61169) Ki of CCOc1ccccc1OCCNC(C)Cc1ccc(OC)c(S(N)(=O)=O)c1 (racemic) [YM-12617, reference compound] is 20.9 nM

Record CCOc1ccc(CC(C)NCCOc2cc(F)ccc2OC)cc1S(N)(=O)=O (centres unmarked) [Example 2, hydrochloride] has dopamine D2-receptor (Rattus norvegicus, UniProt P61169) Ki equal to 166 nM

----------
Overview of reported pKi across a group of molecules:
- target_or_test_system: dopamine D2-receptor (Rattus norvegicus)
- Construct: The homogenates were centrifuged and synaptic membrane fractions were obtained; from tissue; host or cells: brain striatum, synaptic membrane fraction, male Wistar rat
- assay: Dopamine D2-receptor radioligand-binding assay (3H-spiperone, brain striatum membranes)
- Design: species or system rat (male Wistar)
Where a name gives a salt, the structure may show the parent alone.
Units for pKi: none; it is -log10 of a concentration expressed in mol/L.

molecule: CNS(=O)(=O)c1cc(CC(C)NCCOc2cc(F)ccc2OC)ccc1OC.O=C(O)C(=O)O (centres unmarked) [Example 9, oxalate]
pKi: 7.03

dopamine D2-receptor (Rattus norvegicus) pKi of CCOc1ccc(F)cc1OCCNC(C)Cc1ccc(OC)c(S(N)(=O)=O)c1.Cl (centres unmarked) [Example 14, hydrochloride] is 7.63

So the reported pKi for CCNS(=O)(=O)c1cc(CC(C)NCCOc2cc(F)ccc2OC)ccc1OC (centres unmarked) [Example 21] , on dopamine D2-receptor (Rattus norvegicus), turned out to be 7.03

Test item CCOc1ccc(F)cc1OCCNC(C)Cc1ccc(OCC)c(S(N)(=O)=O)c1 (centres unmarked) [Example 5, hydrochloride] ; dopamine D2-receptor (Rattus norvegicus); reported pKi was 7.08

Record CCCCNS(=O)(=O)c1cc(CC(C)NCCOc2cc(F)ccc2OC)ccc1OC.O=C(O)C(=O)O (centres unmarked) [Example 22, oxalate] has dopamine D2-receptor (Rattus norvegicus) pKi equal to 7.11

Each recorded value in this set is attributed to patent US4971990A.
